TARGET ENTITY: ADAMTS4 (Homo sapiens (Human))
MEASUREMENT NOTES: Selectivity assay for ADAMTS-7 modulators: ADAMTS4 (FRET substrate)
Format: biochemical
COND: ADAMTS4 (R&D 4307-AD) 50 nM, substrate Dabcyl-EEVKAKVQPY-Glu(Edans)-NH2 1 μM, 120 min, 32° C.
PROPERTY: IC50 (µM)

Worked examples, 6 compounds total:
COMPOUND | IC50, µM
CS(=O)(=O)c1ccc(-c2ccccc2C(=O)NC[C@@]2(C3CC3)NC(=O)NC2=O)cc1 | 16
Cc1scnc1C1(CNC(=O)c2cc(F)c(F)cc2-c2ccc(C(F)(F)F)cc2)NC(=O)NC1=O (single isomer, unassigned; ent-4) | 7.1
Cc1ccc(-c2cc(C)ccc2C(=O)NC[C@@]2(C3CC3)NC(=O)NC2=O)cc1 | 3.9
Cc1ncsc1C1(CNC(=O)c2ccccc2-c2ccc(C(F)(F)F)nc2)NC(=O)NC1=O (stereo not shown) | 8.7
O=C1NC(=O)[C@](CNC(=O)c2ccccc2-c2ccc(C(F)(F)F)nc2)(C2CC2)N1 | 19
O=C1NC(=O)[C@](CNC(=O)c2ccc(Cl)cc2-c2ccc(C(F)(F)F)cc2)(C2CC2)N1 | 9.1

(A) Cc1ccc(C(=O)NCC2(c3nccn3C)NC(=O)NC2=O)c(-c2ccc(C(F)(F)F)cc2)c1 (single isomer, unassigned; ent-5)
(B) Cc1ccc(C(=O)NCC2(C(C)C)NC(=O)NC2=O)c(-c2ccc(C(F)(F)F)cc2)c1 (racemic) [Example 202]
(C) Cc1nocc1C1(CNC(=O)c2ccccc2-c2ccc(C(F)(F)F)nc2)NC(=O)NC1=O (stereo not shown) [Example 65]
(D) Cn1cncc1C1(CNC(=O)c2ccccc2-c2ccc(C(F)(F)F)nc2)NC(=O)NC1=O (racemic)
Put these in order: smallest IC50 first, largest last. Reply format: the labels, ordered as requested.
A, D, C, B
(A: 1.02 µM, D: 6.6 µM, C: 20 µM, B: 38 µM)

====

TARGET ENTITY: ADAMTS4 (Homo sapiens (Human), UniProt O75173)
Sequence (O75173 213-685): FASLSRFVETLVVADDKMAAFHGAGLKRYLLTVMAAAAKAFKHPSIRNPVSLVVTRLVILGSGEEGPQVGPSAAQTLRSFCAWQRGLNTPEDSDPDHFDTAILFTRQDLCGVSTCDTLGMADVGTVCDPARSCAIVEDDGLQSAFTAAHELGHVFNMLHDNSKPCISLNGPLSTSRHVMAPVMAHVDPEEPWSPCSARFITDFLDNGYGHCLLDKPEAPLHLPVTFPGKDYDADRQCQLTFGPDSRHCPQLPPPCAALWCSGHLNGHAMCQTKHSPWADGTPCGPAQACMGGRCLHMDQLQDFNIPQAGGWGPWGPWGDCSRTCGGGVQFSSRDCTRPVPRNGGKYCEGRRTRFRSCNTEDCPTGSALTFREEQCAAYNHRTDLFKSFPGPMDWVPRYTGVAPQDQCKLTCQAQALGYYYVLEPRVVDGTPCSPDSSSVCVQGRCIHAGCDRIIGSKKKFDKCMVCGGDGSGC
MEASUREMENT NOTES: Selectivity assay for ADAMTS-7 modulators: ADAMTS4 (FRET substrate)
Assay type: biochemical
COND: ADAMTS4 (R&D 4307-AD) 50 nM, substrate Dabcyl-EEVKAKVQPY-Glu(Edans)-NH2 1 μM, 120 min, 32° C.
PROPERTY: IC50 (µM)

Worked examples, 4 compounds total:
COMPOUND | TARGET ENTITY | PROPERTY | OBSERVED
Cc1nsnc1C1(CNC(=O)c2ccccc2-c2ccc(C(F)(F)F)cc2)NC(=O)NC1=O (racemic) [Example 62] | ADAMTS4 (Homo sapiens (Human), UniProt O75173) | IC50 | 26
CCc1ccc(-c2ccccc2C(=O)NC[C@@]2(C3CC3)NC(=O)NC2=O)cc1 | ADAMTS4 (Homo sapiens (Human), UniProt O75173) | IC50 | 5.4
Cn1nccc1C1(CNC(=O)c2cc(F)ccc2-c2ccc(C(F)(F)F)nc2)NC(=O)NC1=O (single isomer, unassigned; ent-5) | ADAMTS4 (Homo sapiens (Human), UniProt O75173) | IC50 | 9.5
Cc1ccc(C(=O)NCC2(c3ncsc3C)NC(=O)NC2=O)c(-c2ccc(C(F)(F)F)cc2)c1 (single isomer, unassigned; ent-5) [Example 168] | ADAMTS4 (Homo sapiens (Human), UniProt O75173) | IC50 | 1.9

(A) CC1(CNC(=O)c2ccccc2-c2ccc(C(F)(F)F)cc2)NC(=O)NC1=O (centres unmarked) [Example 96]
(B) O=C1NC(=O)[C@](CNC(=O)c2ccc(OC(F)(F)F)cc2-c2ccc(C(F)(F)F)cc2)(C2CC2)N1
IC50 comparison. Which is larger, A or B ? Refer to your chosen item by its label in the answer.
A

(I) Cc1nsnc1C1(CNC(=O)c2ccccc2-c2ccc(C(F)(F)F)nc2)NC(=O)NC1=O (racemic) [Example 53]
(II) O=C1NC(=O)[C@](CNC(=O)c2cc(F)ccc2-c2ccc(C(F)(F)F)cc2)(C2CC2)N1
(III) Cn1ccnc1C1(CNC(=O)c2cc(F)ccc2-c2ccc(Cl)cc2)NC(=O)NC1=O (single isomer, unassigned; ent-4)
hey, can you rank those compounds up there by IC50? biggest number first please Reply format: the labels, ordered as requested.
I, II, III
